// provenance: FireProtDB (doi:10.1021/bi9910169)

B1: Lysozyme C, P61626 (parent)
chain: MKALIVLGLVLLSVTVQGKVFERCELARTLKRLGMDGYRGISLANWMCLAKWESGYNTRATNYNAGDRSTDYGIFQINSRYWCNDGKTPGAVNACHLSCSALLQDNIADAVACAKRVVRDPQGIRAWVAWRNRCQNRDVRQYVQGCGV

# Variants of: B1
# Test Conditions: Homo sapiens; pH 2.85; Thermal; DSC; glycine-HCl 0.05 M; reversible: yes; structure 1LZ1; whole UniProt chain shown
Consider the following variants; for each one, report its Tm.
Answers are plain numbers, in °C.

Items follow; give Tm for each.
1. MKALIVLGLVLLSVTVQGKVFERCELARTLKRLGMDGYRGISLANWMCLAKWESGYNTRATNYNAGDRSTDYGIFQINSRYWCNDGKAPGAVNACHLSCSALLQDNIADAVACAKRVVRDPQGIRAWVAWRNRCQNRDVRQYVQGCGV [T88A]
2. MKALIVLGLVLLSVTVQGKVFERCELARTLKRLGMDGYRGISLANWMCLAKWESGYNTRATNYNAGDRSTDYGIFQINSRYWCNDGKVPGAVNACHLSCSALLQDNIADAVACAKRVVRDPQGIRAWVAWRNRCQNRDVRQYVQGCGV [T88V]
3. MKALIVLGLVLLSVTVQGKVFERCELARTLKRLGMDGYRGISLANWMCLAKWESGYNARATNYNAGDRSTDYGIFQINSRYWCNDGKTPGAVNACHLSCSALLQDNIADAVACAKRVVRDPQGIRAWVAWRNRCQNRDVRQYVQGCGV [T58A]
4. MKALIVLGLVLLSVTVQGKVFERCELARTLKRLGMDGYRGISLANWMCLAKWESGYNVRATNYNAGDRSTDYGIFQINSRYWCNDGKTPGAVNACHLSCSALLQDNIADAVACAKRVVRDPQGIRAWVAWRNRCQNRDVRQYVQGCGV [T58V]
5. MKALIVLGLVLLSVTVQGKVFERCELARTLKRLGMDGYRGISLANWMCLAKWESGYNTRATNYNAGDRSVDYGIFQINSRYWCNDGKTPGAVNACHLSCSALLQDNIADAVACAKRVVRDPQGIRAWVAWRNRCQNRDVRQYVQGCGV [T70V]
6. MKALIVLGLVLLSVTVQGKVFERCELARTLKRLGMDGYRGISLANWMCLAKWESGYNTRATNYNAGDRSADYGIFQINSRYWCNDGKTPGAVNACHLSCSALLQDNIADAVACAKRVVRDPQGIRAWVAWRNRCQNRDVRQYVQGCGV [T70A]

[62.2, 65.3, 63.3, 63.2, 64.2, 64.4]
